// reported Relative cAMP EC50, nM (0.1% casein) per item
# System tested: human glucagon receptor (human) (UniProt P47871)
# Sequence (P47871 26-477): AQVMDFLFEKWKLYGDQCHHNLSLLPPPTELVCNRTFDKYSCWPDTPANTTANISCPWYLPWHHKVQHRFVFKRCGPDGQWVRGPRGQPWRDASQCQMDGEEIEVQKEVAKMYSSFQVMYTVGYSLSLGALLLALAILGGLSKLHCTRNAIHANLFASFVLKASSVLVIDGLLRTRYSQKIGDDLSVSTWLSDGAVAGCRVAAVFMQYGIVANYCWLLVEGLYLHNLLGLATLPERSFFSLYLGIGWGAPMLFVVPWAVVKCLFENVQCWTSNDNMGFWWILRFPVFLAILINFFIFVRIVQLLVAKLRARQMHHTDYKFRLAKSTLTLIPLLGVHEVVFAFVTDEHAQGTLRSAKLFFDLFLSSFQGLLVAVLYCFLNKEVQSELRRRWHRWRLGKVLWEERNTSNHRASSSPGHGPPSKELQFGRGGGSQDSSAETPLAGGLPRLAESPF
# Experimental details: cell-based or functional assay
Measured endpoint: Relative cAMP EC50, nM (0.1% casein) (nM)

binder="YXQGTFTSDXSXXLDKKAQXAFIEYLLEXGPSSGAPPPSGS (non-natural residues; lysine acylated AEEA-γGlu-C18 diacid; C-terminal amide; synthetic construct; SITE 2: note = 2-Aminoisobutyric Acid; SITE 10: note = 4-cyano-L-phenylalanine; SITE 12: note = L-ornithine; SITE 13: note = alpha-methyl-leucine; SITE 17: note = Lysine is chemically modified through conjugation of the epsilon-amino group of the Lysine side chain with (2-[2-(2-) [Example 191]" result_unit=nM measured_value=2.11
binder="YXQGTFTSDFSXXLDKKAQXAFIEYLLEGGHSSGAPPPGGS (Aib, Orn, αMeL; acylated Lys; C-terminal amide; synthetic construct; SITE 2: note = 2-Aminoisobutyric Acid; SITE 12: note = L-ornithine; SITE 13: note = alpha-methyl-leucine; SITE 17: note = Lysine is chemically modified through conjugation of the epsilon-amino group of the Lysine side chain with (2-[2-(2-Amino-ethoxy)-ethoxy]-acetyl)-(gamma-Glu)) [Example 162]" result_unit=nM measured_value=4.72
binder="YXQGTXTSDYXILLDKKAQXAFIEYLEEGGPSSGAPPPE (synthetic construct; SITE 2: note = 2-Aminoisobutyric Acid; SITE 6: note = alpha-methyl-2-fluoro-L-phenylalanine; SITE 11: note = alpha-methyl-L-serine; SITE 17: note = Lysine is chemically modified through conjugation of the epsilon-amino group of the Lysine side chain with (2-[2-(2-Amino-ethoxy)-e)) [Example 468]" result_unit=nM measured_value=1.95
